For each entry below, report its composite z-score value.
# PROTOCOL_DESCRIPTION: compound binding in COS7 lysate, probe aLAP1, primary screen, cell lysate, small-molecule microarray (AID 1124);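 note: lysate comes from COS7 cells expressing LAP1 and is applied at 0.3 µg/mL; score merges spot fluorescence near 667 nm with signal-to-noise over triplicate slides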
# SETTINGS: probe aLAP1, fluorescence, higher = more signal

Q) Look up and state reported composite z-score for COc1ccc(OC[C@@H]2CC3[C@@H](c4ccc(Br)cc4)[C@H](C)CC[C@H]3C(=O)O2)cc1 (some centres undefined)
A) 0.196

Q) Identify composite z-score associated with the molecule COC(=O)C(C(=O)OC)C1CCCC(=O)C1 (centres undefined)
A) -0.205

Q) Annotate the molecule CC(C)CON=C1C[C@@H](O)[C@@H](O)[C@@H]2[C@@H]3C(=O)N(c4ccc(F)cc4F)C(=O)[C@@H]3CC[C@@H]12 with its measured composite z-score.
A) 0.135

Q) Give me measured composite z-score, please, for this molecule: CC(C)=NO[C@H](C)c1cn([C@@H]2COC[C@H]2O)nn1
A) 0.191

* * *

# PROTOCOL_DESCRIPTION: PSAC antagonists in infected red cells, primary screen, cell-based, P. falciparum Indochina, OD700, 18 h (AID 1157)
# SETTINGS: P. falciparum Indochina infected erythrocytes, osmotic lysis OD700, 18 h; higher = more signal, called active from +8 up or from −8 down
Binary classification by z-score, with 0.3 as an inclusive lower bound for MET; all other cases are NOT MET.

Q) Reported z-score at or above 0.3? CC(C)=NOC(C)CN1CCCCc2nc(C)c(C)cc21 (stereo not given)
A) NOT MET

Q) Determine whether measured z-score meets or exceeds 0.3 for O=C1C2=CC[C@H]3C(=O)N(Cc4ccccc4)C(=O)[C@H]3[C@H]2[C@H](O)[C@@H]2O[C@H]12
A) NOT MET

Q) Could you verify whether the entry CC(=O)OC[C@H]1O[C@H](CC=NO[C@@H](C)c2cc(-c3c(C)cc(C)cc3C)no2)C=C[C@@H]1OC(C)=O shows z-score of no less than 0.3?
A) MET

Q) Could you verify whether the entry CCN1C(=O)[C@H]2[C@@H]3C(=CC[C@H]2C1=O)C(=O)[C@H]1O[C@H]1[C@H]3O shows z-score of no less than 0.3?
A) NOT MET

Q) State whether the measured z-score reaches 0.3, counting equality as reaching it, for COC(=O)[C@@H]1CC[C@H](C)[C@@H](c2ccc(Br)cc2)N1C[C@@H](O)CN=[N+]=[N-]
A) NOT MET

Q) Item Cc1cc(C)c(-c2cc([C@H](C)ON=C[C@@H](C)[C@H](OCc3ccccc3)C(C)C)on2)c(C)c1 with z-score of 0.3 or above?
A) NOT MET

Q) Identify whether the reported z-score of the following molecule is 0.3 or greater: O=C1C=C[C@@H](O)[C@@H]2[C@@H]3C(=O)N(Cc4ccccc4)C(=O)[C@@H]3CC[C@@H]12
A) NOT MET

Q) Threshold query (z-score >= 0.3) on CC(C)CON=C1[C@H]2CCn3c(=O)n(C)c(=O)n3[C@H]2[C@H](O)[C@@H]2O[C@H]12
A) NOT MET

Q) Textbook exercise: given the entry CCOC(=O)CCN1C(=O)[C@H]2[C@H]3[C@H](O)[C@H](O)CC(=NO[C@@H]4O[C@H](CO)[C@@H](O)[C@H](O)[C@H]4O)[C@@H]3CC[C@H]2C1=O , state whether its z-score is greater than or equal to 0.3.
A) MET

Q) // inclusive: z-score at least 0.3? input: O=C1C=C[C@@H](O)[C@@H]2[C@@H]3C(=O)N(Cc4ccc5c(c4)OCO5)C(=O)[C@@H]3CC[C@@H]12
A) MET

* * *

# Tested on: Human papillomavirus type 1a protein E7 (residues 44-93)
# PROTOCOL_DESCRIPTION: HPV1a E7 fragment binders on microarrays, primary screen, biochemical, small-molecule microarray, residues 44-93, 635 nm fluorescence (AID 1108);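 note: E7 fragment applied at 1 µg/mL in TBST for 1 h at 4 C; score combines spot fluorescence with its signal to noise ratio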
# SETTINGS: small-molecule microarray binding, fluorescence 635 nm; higher = more signal
Binning of composite z-score into classes: 0 = under -0.6, 1 = from -0.6 up to 0.4, 2 = 0.4 and over

Q) Class (by measured composite z-score) for CC(C)CON=C1C[C@@H](O)[C@@H](O)[C@@H]2[C@@H]3C(=O)N(Cc4ccc5c(c4)OCO5)C(=O)[C@@H]3CC[C@@H]12
A) 2

Q) # classify by composite z-score band: C=C(C)C(=O)OC[C@H]1CN2[C@@H](CC[C@@H](C)[C@@H]2c2ccc(Br)cc2)C(=O)O1
A) 1

Q) Classify this compound: COC(=O)[C@H](C)NC(=O)CCC1CC(OC(=O)NCCc2ccc(F)cc2)CC2(CCCC(COC(=O)NCc3ccccc3)O2)O1 (stereo partly specified)
A) 2

Q) Classify this compound: CCO[C@H](c1cc(OC)cc([N+](=O)[O-])c1OC)[C@H](C)[C@@H](OC)[C@H](C)C=CCC(=O)OC
A) 2

Q) Which of the defined bands does the recorded composite z-score of CO[C@H]1COC(=O)CC=C[C@@H](C)COC(=O)[C@H]2CCCN2C(=O)CC=C[C@H]1C sit within?
A) 0

Q) Which bin should I file O=C1[C@H]2CCn3c(=O)n(Cc4cc5c(cc4Cl)OCO5)c(=O)n3[C@H]2[C@H](O)[C@@H]2O[C@H]12 under?
A) 1

Q) Lab note: sort COC(=O)[C@@H]1CC[C@H](C)[C@@H](c2ccc(Br)cc2)N1C[C@H](O)CN=[N+]=[N-] into the matching composite z-score band.
A) 1

Q) GET /class?item= CCN1C(=O)[C@H]2[C@H]3[C@H](O)[C@H](O)CC(=NOC[C@@H](O)COCc4ccco4)[C@H]3CC[C@H]2C1=O
A) 1

Q) The entry to classify is CC(CCN1CCCc2nc(C)c(C)cc21)=NOC[C@@H](C)[C@H](OCc1ccccc1)C(C)C ; which class holds it?
A) 0

Q) Class for C[C@H]1C=CCC(=O)OC[C@H](C)C(=O)N2CCC[C@H]2C(=O)OC1 ?
A) 0

Q) Which category fits this record: CC(C)=NOC[C@@H](O)[C@H]1O[C@@H]2OC(C)(C)O[C@@H]2[C@H]1O
A) 2

* * *

# PROTOCOL_DESCRIPTION: fission yeast growth modulation, primary screen, strain 972, OD600, 24 h, no modulator (AID 1090);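 note: basal condition with compound alone and no growth modifier present; test concentration not given here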
# SETTINGS: S. pombe 972 growth, called active from +8 up or from −8 down
The source made the active and inactive calls.
// allowed return values: yes for active, no for inactive

Q) Test call for this molecule, please: CC(CCN1CCCCc2nc(C)c(C)cc21)=NO[C@@H](C)c1cc(-c2c(C)cc(C)cc2C)no1
A) yes

Q) Record lookup: outcome of this test for CC(C)=NO[C@H](C)c1cn([C@@H]2COC[C@H]2O)nn1 ?
A) no

Q) What did the test return for CO[C@H]1COC(=O)[C@H](C)COC(=O)[C@H](C)NC(=O)CC=C[C@H]1C ?
A) no

Q) Dear colleague, could you share the recorded outcome for C=CC[C@@H]1C=C[C@H](ON=C(C)CCN2CCCCc3nc(C)c(C)cc32)[C@@H](CO)O1 when you have a moment?
A) no

Q) Hello, I am checking results. What call was entered for C#CCCCON=C1[C@H]2CCn3c(=O)n(Cc4cc5c(cc4Cl)OCO5)c(=O)n3[C@H]2[C@H](O)[C@@H]2O[C@H]12 ?
A) no

Q) Look up the recorded call for CCOC(=O)[C@H](CC(C)C)NC(=O)CCC1CC(OC(=O)NCCc2ccc(F)cc2)CC2(CCCC(COC(=O)NCc3cccc(C(F)(F)F)c3)O2)O1 (stereo partly drawn) in this test.
A) no

Q) Fill in: this test's call for C[C@H]1CC[C@H]2C(=O)OC(COc3ccc(C(C)(C)C)cc3)CN2[C@@H]1c1ccc(Br)cc1 (stereo partly drawn) is ___
A) yes

Q) Recorded test call requested for CC(CCC(=O)OC[C@H]1O[C@H](C#Cc2ccccc2)C=C[C@@H]1Oc1ccc(C)cc1)=NO[C@H](C)c1cn([C@@H]2COC[C@H]2O)nn1
A) no

Q) Assay result, entry CCCNC(=O)OC[C@H]1O[C@H](CCON=C2c3cc(OC)ccc3O[C@H](c3cccc(OC)c3)[C@H]2O)C=C[C@@H]1Oc1ccc(OC)cc1 — outcome?
A) no

Q) I would be grateful if you could indicate the recorded call for CC(C)CON=C1C[C@@H](O)[C@@H](O)[C@@H]2[C@@H]3C(=O)N(Cc4ccc5c(c4)OCO5)C(=O)[C@@H]3CC[C@@H]12 .
A) no

Q) Outcome logged for CO[C@H]1COC(=O)[C@H](C)COC(=O)[C@@H](OCc2ccccc2)C=C[C@@H]1C in this assay:
A) no

Q) What was the test verdict on CC(=O)OC[C@H]1O[C@H](CC=NO[C@H](C)c2cn([C@@H]3COC[C@H]3O)nn2)C=C[C@@H]1OC(C)=O ?
A) no

Q) Hello, I am checking results. What call was entered for C#CCCCON=C1C[C@@H](O)[C@@H](O)[C@@H]2[C@@H]3C(=O)N(C[C@@H]4CCCO4)C(=O)[C@@H]3CC[C@H]12 ?
A) no
